Tested on: CAL-120, human breast adenocarcinoma cells
Test: Proliferation assay CAL-120 (crystal violet, 4 days)
Assay type: cell-based
Conditions: Homo sapiens, CAL-120, 96 h, CAL-120 cells, median, read-out: Prolif-CAL-120, IC50-[mol/l] (median)
pIC50: −log10 of the molar value.
Binary classification by pIC50, with 8 as an inclusive lower bound for Yes; all other cases are No.

The following compounds have reported results that may help.
{"compound": "Cc1cc2nc(CNc3nc(N(C)CC(C)(C)O)nc4c(C5CC5)cnn34)[nH]c2cc1C [Example 321]", "targetOfAssay": "CAL-120, human breast adenocarcinoma cells", "labelValue": "Yes"}
{"compound": "Cc1cnn2c(NCc3nc4ccccc4[nH]3)nc(N(C)CC(C)(C)O)nc12 [Example 397]", "targetOfAssay": "CAL-120, human breast adenocarcinoma cells", "labelValue": "No"}
{"compound": "OC[C@@H]1CCCCN1c1nc(NCc2nc3c(F)cccc3[nH]2)n2ncc(C3CC3)c2n1 [Example 189]", "targetOfAssay": "CAL-120, human breast adenocarcinoma cells", "labelValue": "Yes"}
{"compound": "Cn1cc(-c2cnn3c(NCc4nc5cc(Cl)c(Cl)cc5[nH]4)nc(N4CCOCC4)nc23)cn1 [Example 419]", "targetOfAssay": "CAL-120, human breast adenocarcinoma cells", "labelValue": "No"}
{"compound": "CN(CC(C)(C)O)c1nc(NCc2nc3c(F)c(F)ccc3[nH]2)n2ncc(Cl)c2n1 [Example 359]", "targetOfAssay": "CAL-120, human breast adenocarcinoma cells", "labelValue": "Yes"}

Shift focus to the following entry.
pIC50 >= 8 for Clc1cc2nc(CNc3nc(N4CCOCC4)nc4c(-c5cncs5)cnn34)[nH]c2cc1Cl [Example 443] ?
Yes
